# Tested on: Acinetobacter baumannii
# Protocol Summary: Antibacterial activity against Acinetobacter baumannii ATCC 19606 (CO-ADD:GN_034); MIC in CAMBH media using NBS plates, by Resazurin F(560/590)
# Assay type: functional
# Condition Notes: Concentration 20 uM, ASSAY_TEST Inhibition of Bacterial Growth, detection method Resazurin, Fluorescence (ex560/em590), MEDIA CAMHB, plate type 384well, CORNING #3640, time 18 hr
Below, each entry is listed alongside its reported Inhibition.
Write the number in % without appending the unit.

CC12CCC(C1)C(C)(C)C2OC(=O)c1ccccc1C(=O)O (configuration not stated) :: -7.81
Cc1nc2ccc(N)nc2nc1C :: -14.31
Oc1ccc2ccc3[nH]cnc3c2c1 :: -12.2
CC(=O)Oc1ccc(OC(C)=O)c2c1CC(C)=C(C)C2 :: -3.24
CC(=O)Oc1c(C)c(OC(C)=O)c2c(c1C(C)=O)OC1CC(=O)C(C(C)=O)=C(O)C21C (configuration not stated) :: -11.04

# ---- query compound ----
Please give the measured Inhibition for this compound: CC(=O)c1cc(O)c2ccccc2c1O -14.11

###

# Test system: Staphylococcus aureus
# Protocol Summary: Antibacterial activity against Staphylococcus aureus MRSA ATCC 43300 (CO-ADD:GP_020); MIC in CAMBH media using NBS plates, by Resazurin F(560/590)
# Format: functional
# Condition Notes: Concentration 20 uM, ASSAY_TEST Inhibition of Bacterial Growth, detection method Resazurin, Fluorescence (ex560/em590), MEDIA CAMHB, plate type 384well, CORNING #3640, time 18 hr
Measured Endpoint: Inhibition (%)
Write the number in % without appending the unit.

Solved cases below.
COc1cc2c(=O)n3c4c(cccc4c2cc1OC)CC3 :: 9.4
C#CCNc1ccc(C(=O)OCC)cc1 :: 7.69
Nc1cc2c3c(cccc3c1)C(=O)N(CCN1CCCC1)C2=O :: 23.19
c1ccc(-c2nc3ccccc3s2)nc1 :: 11.77
O=C(O)/C=C\C(=O)Nc1ccc(-c2ccccc2)cc1 :: -11.84
CC(C)=CCC/C(C)=C\C(N)=O :: -1.13
CC1(C)OC2CC(=O)OCC23C1CC(=O)C1(C)C3CCC2(C)C(c3ccoc3)OC(=O)C3OC321 (stereo not drawn) :: 21.22
CC(=O)Oc1ccc(OC(C)=O)c2c1CC1(C)OC1(C)C2 (stereo not drawn) :: 13.73
CC1=NC(C)(C)CC2CCC(O)C12 (stereo not drawn) :: 15.01
O=C(O)/C=C\c1cc2c(cc1[N+](=O)[O-])OCO2 :: 16.17

Please give the measured Inhibition for this molecule: COc1cccc(/C=C/c2nccc3ccccc23)c1OC 13.01

Could you do the same for COc1ccc(Nc2cc(C)nc(N)n2)cc1 , please? -7.83

Could you do the same for CCCCNCC1CCCO1 (stereo not drawn) , please? 9.4

###

# System: Escherichia coli
# Protocol Summary: Antibacterial activity against Escherichia coli ATCC 25922 (CO-ADD:GN_001); MIC in CAMBH media using NBS plates, by Resazurin F(560/590)
# Assay type: functional
# Condition Notes: Concentration 20 uM, ASSAY_TEST Inhibition of Bacterial Growth, detection method Resazurin, Fluorescence (ex560/em590), MEDIA CAMHB, plate type 384well, CORNING #3640, time 18 hr
Below, each entry is listed alongside its reported Inhibition.
Write the number in % without appending the unit.

Solved cases below.
Oc1ccc(/N=N/c2ccccc2)c(O)c1/N=N/c1ccccc1 :: -20.22
Cc1cc2c(c(C#N)c1C)NC=NC2C (stereo unspecified) :: 15.46
CCOC(=O)c1c(C)nc(C)c(C(=O)OCC)c1-c1ccc(OC)cc1 :: -21.92
CN1CCC(n2[nH]c(-c3ccccc3)c(Cc3ccccc3)c2=O)CC1 :: 9.93
O=C(COc1cc(Cl)c(Cl)cc1Cl)Nc1ccc([N+](=O)[O-])cc1Cl :: 13.57

# ---- query compound ----
Please give the measured Inhibition for this compound: O=C(Nc1ccsn1)c1ccc(Cl)cc1Cl 7.73
